Molecular target: human emopamil binding protein and human 7-dehydrocholesterol reductase (hEBP-DHCR7) (Homo sapiens (Human), UniProt Q15125)
Sequence (Q15125 whole entry): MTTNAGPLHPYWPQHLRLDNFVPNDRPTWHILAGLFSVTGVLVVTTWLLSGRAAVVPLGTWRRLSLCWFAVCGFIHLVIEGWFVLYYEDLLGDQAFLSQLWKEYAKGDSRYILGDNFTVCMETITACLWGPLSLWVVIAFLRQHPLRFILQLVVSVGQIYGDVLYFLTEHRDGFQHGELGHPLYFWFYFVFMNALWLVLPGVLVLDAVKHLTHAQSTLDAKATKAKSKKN
Provide the recorded Ki for the entries that follow.
Express your answer in nM, writing the number without its unit.

Req: Answer with the recorded Ki for the compound listed here: CC(C)n1nc(-c2cccc(C(F)(F)F)c2)cc1[C@H]1[C@@H]2C[C@@H](N3CCCOCC3)C[C@@H]21
Resp: 14.2

Req: For CC(C)n1nc(-c2cncc(C(F)(F)F)c2)nc1[C@H]1[C@@H]2C[C@H](N3CCCOCC3)C[C@@H]21 , write its Ki.
Resp: 358

Req: Name the recorded Ki of the compound listed here: CC(C)n1nc(-c2cncc(C(F)(F)F)c2)nc1[C@H]1[C@@H]2C[C@@H](N3CCO[C@H](C)C3)C[C@@H]21
Resp: 838

Req: Supply recorded Ki for CC(C)n1nc(-c2cccc(OC(F)F)c2)nc1[C@H]1[C@@H]2C[C@H](N3CCOC[C@H]3C)C[C@@H]21 here.
Resp: 15

Req: For the compound CC(C)n1nc(-c2ccc(C(F)(F)F)nc2)nc1[C@@H]1CC[C@H](N2CCOCC2)C1 , give its reported Ki.
Resp: 8.89

* * *

I'd be grateful if you could share measured pEC50 for these entries.
Test system: zymostenol accumulation (EBP) in EpiSC-derived OPCs
Assay: GC/MS-based sterol profiling, zymostenol accumulation in EpiSC-derived OPCs
Assay type: cell-based, mouse
Conditions: Mus musculus, 24 h, EpiSC-derived OPCs, 24 hr, 8 doses from 0.15 nM to 333 nM; read-out: Mouse Zymostenol GCMS EC50
Scale explanation: pEC50 corresponds to minus log10 of a concentration expressed in moles per litre.

Req: Give the reported value of pEC50 for this record: CC(C)n1nc(-c2cncc(C(F)(F)F)c2)cc1[C@H]1[C@@H]2C[C@H](N3CCOC[C@@H]3C)C[C@@H]21 (single isomer, unassigned) [45*]
Resp: 7.96

Req: # return recorded pEC50 for input CC(C)n1nc(-c2cncc(C(F)(F)F)c2)cc1[C@H]1CC[C@H](N2CCCOCC2)C1 (single isomer, unassigned) [63*]
Resp: 8.46

Req: Specify measured pEC50 for CC(C)n1nc(-c2cncc(C(F)(F)F)c2)cc1[C@H]1[C@@H]2C[C@H](N3CCCOCC3)C[C@@H]21 [Compound 29] .
Resp: 8.50

* * *

Assignment: determine reported pKi for the given molecules.
Keep it numeric: pKi is minus log10 of the concentration in mol/L.

Req: Return reported pKi for target or system UniProtKB Q15125, item CC(C)n1nc([C@H]2CC[C@@H](C(F)(F)F)CC2)nc1[C@H]1[C@@H]2C[C@H](N3CCOC[C@H]3C)C[C@@H]21 (single isomer, unassigned) .
Resp: 7.39

Req: Identify measured pKi obtained with UniProtKB Q15125 for CC(C)n1nc(-c2cncc(Cl)c2)cc1[C@H]1[C@@H]2C[C@@H](N3CCCOCC3)C[C@@H]21 .
Resp: 7.81

Req: Under UniProtKB Q15125: report pKi of CC(C)n1nc(-c2cncc(C(F)(F)F)c2)cc1[C@H]1[C@@H]2C[C@H](N3C[C@H]4C[C@@H]3CO4)C[C@@H]21 (single isomer, unassigned) .
Resp: 7.48

Req: For UniProtKB Q15125, give pKi of the listed molecule: COCCN1CCN([C@H]2CC[C@H](c3cc(-c4ccc(C(F)(F)F)nc4)nn3C(C)C)C2)CC1 (single isomer, unassigned)
Resp: 7.11

* * *

Test system: zymostenol accumulation (EBP) in EpiSC-derived OPCs
Test: GC/MS-based sterol profiling, zymostenol accumulation in EpiSC-derived OPCs
Type: cell-based, mouse
Details: Mus musculus, 24 h, EpiSC-derived OPCs, 24 hr, 8 doses from 0.15 nM to 333 nM; read-out: Mouse Zymostenol GCMS EC50
Exercise: state measured pEC50 for each of the compounds provided.
Field pEC50 (float): negative decimal logarithm of the concentration in molar.

Req: Report pEC50 for CC(C)n1nc(-c2ccc(C(F)(F)F)cn2)cc1[C@H]1[C@@H]2C[C@H](N3CCOCC3)C[C@@H]21
Resp: 8.12

Req: Dear colleague, please send me the reported pEC50 for CC(C)n1nc(-c2cncc(C(F)(F)F)c2)cc1[C@H]1[C@@H]2C[C@H](N3CCO[C@H](C)C3)C[C@@H]21 (single isomer, unassigned) when you can.
Resp: 8.05

Req: Find the measured pEC50 of CC(C)n1nc(-c2cncc(C(F)(F)F)c2)cc1[C@H]1[C@@H]2CC(N3CCOC[C@@H]3C)C[C@@H]21 (single isomer, unassigned) and report it.
Resp: 6.61

Req: Could you please provide reported pEC50 for CCn1nc(-c2cncc(C(F)(F)F)c2)cc1[C@H]1[C@@H]2C[C@H](N3CCCOCC3)C[C@@H]21 ? Thanks!
Resp: 8.52

Req: Given the compound CC(C)n1nc(-c2cnc(C(F)(F)F)nc2)cc1[C@H]1[C@@H]2C[C@H](N3CCOC[C@H]3C)C[C@@H]21 , write its reported pEC50.
Resp: 8.41

Req: Identify pEC50 associated with the compound CC(C)n1nc(-c2cncc(C(F)(F)F)c2)cc1[C@H]1[C@@H]2C[C@H](N3CCOC[C@H]3C)C[C@@H]21 (single isomer, unassigned)
Resp: 8.85
